- measured.on: T1, Recombinant human NRG1-β ECD domain (R&D Systems, cat#377-HB/CF) (human, UniProt Q02297-11 121-191, limits assumed)
- T1 construct: also called NRG1-beta; HRG1β
- T1 sequence: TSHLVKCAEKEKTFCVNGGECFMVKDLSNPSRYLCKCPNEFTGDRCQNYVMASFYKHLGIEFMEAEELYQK
- measurement.notes: SPR (BIAcore T100), IgG captured by anti-human Fc; table under the head '125nM NRG-beta'; this table is identical to that of FIG. 9 (NRG1-alpha) and does not fit the slow dissociation of the sensorgrams above it
Examples of binders with documented kon follow.
Respond numerically; units are M⁻¹ s⁻¹ and should not be typed.

anti-NRG1 antibody 538.24.71 (antibody, human IgG1, kappa, V domains shown, also called YW538.24.71) VH: EVQLVESGGGLVQPGGSLRLSCAASGFTFSGTWIHWVRQAPGKGLEWVAAITPADGSTNYADSVKGRFTISADTSKNTAYLQMNSLRAEDTAVYYCATYMFAMDYWGQGTLVTVSS VL: DIQMTQSPSSLSASVGDRVTITCRASQDVSISLAWYQQKPGKAPKLLIYGASNLESGVPSRFSGSGSGTDFTLTISSLQPEDFATYYCQQHYTLPFTFGQGTKVEIKR; 1.5e+07
anti-NRG1 antibody 538.24.36 (antibody, human IgG1, V domains shown, also called YW538.24.36) VH: EVQLVESGGGLVQPGGSLRLSCAASGFTFSGTWIHWVRQAPGKGLEWVAAITPADGSTNYADSVKGRFTISADTSKNTAYLQMNSLRAEDTAVYYCATYMFAMDYWGQGTLVTVSS VL: DIQMTQSPSSLSASVGDRVTITCRASQNVDRSLAWYQQKPGKAPKLLIYAASSLESGVPSRFSGSGSGTDFTLTISSLQPEDFATYYCQQHYTLPFTFGQGTKVEIKR; 1.91e+06

Which kon is listed for anti-NRG1 antibody 538.24.17 (antibody, human IgG1, V domains shown, also called YW538.24.17) VH: EVQLVESGGGLVQPGGSLRLSCAASGFTFSGTWIHWVRQAPGKGLEWVAAITPADGSTNYADSVKGRFTISADTSKNTAYLQMNSLRAEDTAVYYCATYMFAMDYWGQGTLVTVSS VL: DIQMTQSPSSLSASVGDRVTITCRASQDVSTAVAWYQQKPGKAPKLLIYSASFLYSGVPSRFSGSGSGTDFTLTISSLQPEDFATYYCQQSYWMPPTFGQGTKVEIKR ?
1.56e+06

Which kon is listed for anti-NRG1 antibody 538.24.94 (antibody, human IgG1, V domains shown, also called YW538.24.94) VH: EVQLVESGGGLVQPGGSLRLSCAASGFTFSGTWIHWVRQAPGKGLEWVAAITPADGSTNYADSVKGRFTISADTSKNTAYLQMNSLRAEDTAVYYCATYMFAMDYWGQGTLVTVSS VL: DIQMTQSPSSLSASVGDRVTITCRASQDVKKSLAWYQQKPGKAPKLLIYGASNLESGVPSRFSGSGSGTDFTLTISSLQPEDFATYYCQQHYTLPLTFGQGTKVEIKR ?
480000
